# TGI values compiled below
System: DU-145 prostate
Test: NCI tumour cell line growth inhibition, 48 h

Examples with answers:
Request the reported TGI associated with `Cc1cccc(CNc2ncnc3[nH]ncc23)c1` > 100 µM

Request the reported TGI associated with `O/N=C1/CCCc2nonc21` > 100 µM

Further cases:
Request the reported TGI associated with OC1COC(OCc2ccccc2)C(O)C1O (stereo not drawn) > 100 µM

Request the reported TGI associated with `Cc1ccc(S(=O)(=O)NC(=O)OC23COCN2COC3)cc1` > 100 µM

Request the reported TGI associated with `COc1ccc(C(=O)Oc2c(C#N)sc3c2c(=O)n(-c2ccccc2)c(=S)n3-c2ccccc2)cc1` > 100 µM

Request the reported TGI associated with `O=C(/C=C(\Nc1ccccc1O)c1ccc(Br)cc1)C(Cl)(Cl)Cl` 13.8 µM

Request the reported TGI associated with `CC(C)CCC[C@@H](C)[C@H]1CC[C@H]2C3=C[C@H](OS(=O)(=O)O)[C@@]4(O)C[C@@H](O)CC[C@]4(C)[C@@]3(O)CC[C@]12C` > 100 µM
